Molecular target: c-Src kinase (Homo sapiens, UniProt P12931)
Sequence (P12931 whole entry): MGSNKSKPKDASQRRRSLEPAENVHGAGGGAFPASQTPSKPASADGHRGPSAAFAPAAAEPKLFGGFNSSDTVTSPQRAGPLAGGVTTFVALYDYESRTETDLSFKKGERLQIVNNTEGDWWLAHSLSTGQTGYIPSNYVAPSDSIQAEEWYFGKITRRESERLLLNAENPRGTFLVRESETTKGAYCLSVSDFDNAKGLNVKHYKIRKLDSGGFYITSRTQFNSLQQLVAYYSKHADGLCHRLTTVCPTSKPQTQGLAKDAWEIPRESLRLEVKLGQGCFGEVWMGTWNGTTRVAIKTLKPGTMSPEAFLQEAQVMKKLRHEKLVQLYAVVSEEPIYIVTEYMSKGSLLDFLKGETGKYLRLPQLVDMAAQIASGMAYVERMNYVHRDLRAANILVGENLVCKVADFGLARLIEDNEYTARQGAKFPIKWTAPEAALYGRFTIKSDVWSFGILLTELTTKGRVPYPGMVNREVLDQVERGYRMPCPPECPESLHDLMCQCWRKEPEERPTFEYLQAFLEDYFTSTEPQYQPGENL
observable: IC50 (nM)

{"compound": "Cc1ccc(C2C(C#N)=C(N)Oc3ccc4cc(Br)ccc4c32)cc1 (centres unmarked) [Compound 4e]", "valueUnit": "nM", "observedValue": 9}
{"compound": "COc1ccc2c3c(ccc2c1)OC(N)=C(C#N)C3c1ccc(C)cc1 (centres unmarked) [Compound 6e]", "valueUnit": "nM", "observedValue": 9}

====

Tested on: MDA-MB-231 cell line
Assay: Cell invasion assay
Format: cell-based
Details: Homo sapiens, read-out: IC50 anti-invasion activity, MDA-MB-231
observable: pIC50
Please express pIC50 as -log10 of the molar concentration.

### Prompt Fill in the recorded pIC50 for this molecule, with MDA-MB-231 cell line as test system: N#CC1=C(N)Oc2ccc3cc(Br)ccc3c2C1c1ccc(Cl)cc1 (stereo not shown) [Compound 4c]
### Response 4.98

====

Tested on: MCF-7
Assay: MTT viability assay, MCF-7 (breast cancer)
Type: cell-based
Settings: Homo sapiens, MCF7, 24 h incubation, mean ± standard error
observable: IC50 (µg/mL)

These solved cases illustrate the format of a correct answer.
{"molecule": "CC[C@]1(O)C[C@@H]2CN(CCc3c([nH]c4ccccc34)[C@@](C(=O)OC)(c3cc4c(cc3OC)N(C)[C@H]3[C@@](O)(C(=O)OC)[C@H](OC(C)=O)[C@]5(CC)C=CCN6CC[C@]43[C@@H]65)C2)C1 [Vinblastine, reference compound]", "IC50 / µg/mL": 6.1}
{"molecule": "N#CC1=C(N)Oc2ccc3cc(Br)ccc3c2C1c1ccc(Br)cc1 (stereo not drawn) [Compound 4d]", "IC50 / µg/mL": 2.5}
{"molecule": "N#CC1=C(N)Oc2ccc3cc(Br)ccc3c2C1c1ccccc1 (stereo not drawn) [Compound 4a]", "IC50 / µg/mL": 0.9}
{"molecule": "Cc1ccc(C2C(C#N)=C(N)Oc3ccc4cc(Br)ccc4c32)cc1 (stereo not drawn) [Compound 4e]", "IC50 / µg/mL": 2.5}
{"molecule": "COc1ccc(C2C(C#N)=C(N)Oc3ccc4cc(Br)ccc4c32)cc1 (stereo not drawn) [Compound 4f]", "IC50 / µg/mL": 3.8}
{"molecule": "COc1ccc2c3c(ccc2c1)OC(N)=C(C#N)C3c1ccc(C)cc1 (stereo not drawn) [Compound 6e]", "IC50 / µg/mL": 0.3}
{"molecule": "COc1ccc(C2C(C#N)=C(N)Oc3ccc4cc(Br)ccc4c32)c(OC)c1 (stereo not drawn) [Compound 4g]", "IC50 / µg/mL": 3.6}
{"molecule": "N#CC1=C(N)Oc2ccc3cc(Br)ccc3c2C1c1ccc(F)cc1 (stereo not drawn) [Compound 4b]", "IC50 / µg/mL": 5.2}
{"molecule": "COc1ccc2c3c(ccc2c1)OC(N)=C(C#N)C3c1ccc(Cl)cc1 (stereo not drawn) [Compound 6c]", "IC50 / µg/mL": 3.1}
{"molecule": "COc1ccc(C2C(C#N)=C(N)Oc3ccc4cc(OC)ccc4c32)cc1 (stereo not drawn) [Compound 6f]", "IC50 / µg/mL": 0.6}

a = N#CC1=C(N)Oc2ccc3cc(Br)ccc3c2C1c1ccc(Cl)cc1 (stereo not drawn) [Compound 4c]
b = COc1ccc2c3c(ccc2c1)OC(N)=C(C#N)C3c1ccccc1 (stereo not drawn) [Compound 6a]
### Prompt // select label with min value of measured IC50 from [ a , b ] // output: label of the selected item
### Response a
(a: 0.5 µg/mL, b: 2.7 µg/mL)

====

# melting point per entry

Worked cases, answers included:
{"compound": "COc1ccc2c3c(ccc2c1)OC(N)=C(C#N)C3c1ccc(F)cc1 (stereo not drawn)", "observedValue": "256 to 257 °C"}
{"compound": "COc1ccc(C2C(C#N)=C(N)Oc3ccc4cc(Br)ccc4c32)cc1 (stereo not drawn)", "observedValue": "234 to 235 °C"}
{"compound": "Cc1ccc(C2C(C#N)=C(N)Oc3ccc4cc(Br)ccc4c32)cc1 (stereo not drawn)", "observedValue": "215 to 216 °C"}
{"compound": "N#CC1=C(N)Oc2ccc3cc(Br)ccc3c2C1c1ccc(Br)cc1 (stereo not drawn)", "observedValue": "250 to 251 °C"}
{"compound": "COc1ccc(C2C(C#N)=C(N)Oc3ccc4cc(OC)ccc4c32)c(OC)c1 (stereo not drawn)", "observedValue": "210 to 211 °C"}
{"compound": "COc1ccc2c3c(ccc2c1)OC(N)=C(C#N)C3c1ccc(C)cc1 (stereo not drawn)", "observedValue": "232 to 233 °C"}
{"compound": "COc1ccc2c3c(ccc2c1)OC(N)=C(C#N)C3c1ccc(OC)c(OC)c1 (stereo not drawn)", "observedValue": "200 to 201 °C"}
{"compound": "N#CC1=C(N)Oc2ccc3cc(Br)ccc3c2C1c1ccc(F)cc1 (stereo not drawn)", "observedValue": "242 to 243 °C"}

### Prompt I'd like to know its melting point. The compound in question is COc1ccc2c3c(ccc2c1)OC(N)=C(C#N)C3c1ccc(Br)cc1 (stereo not drawn)
### Response 261 to 262 °C

### Prompt Same again, this time with COc1ccc(C2C(C#N)=C(N)Oc3ccc4cc(Br)ccc4c32)c(OC)c1 (stereo not drawn)
### Response 220 to 221 °C

### Prompt Please answer likewise for COc1ccc2c3c(ccc2c1)OC(N)=C(C#N)C3c1ccc(Cl)cc1 (stereo not drawn)
### Response 247 to 248 °C

### Prompt And COc1ccc(C2C(C#N)=C(N)Oc3ccc4cc(Br)ccc4c32)cc1OC (stereo not drawn) ?
### Response 200 to 201 °C
